System: TIE2
Construct: gene TEK
Details: concentration: 1 μM,replicates: in singlicate; n = 1;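 further: KINOMEscan kinase panel screen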
%Inh overview
Give the value, in units of %, as a plain number.

{"compound": "COc1cc2nccc(Nc3ccc(Oc4ccccc4)cc3)c2cc1OC.Cl", "data value": 0}
{"compound": "Cc1ccc(Nc2ccnc(Nc3ccc4c(c3)CS(=O)(=O)C4)n2)cc1O.Cl", "data value": 56}
{"compound": "c1ccc(Oc2ccc(Nc3ccnc4ccc(-c5ccccn5)cc34)cc2)cc1", "data value": 2}
{"compound": "Cn1ccc2ncnc(Oc3ccc(NC(=O)Nc4cc(C(C)(C)C)on4)c(Cl)c3)c21", "data value": 97.1}
{"compound": "CSc1nccc(-c2c(-c3ccc(F)cc3)ncn2CCCN2CCOCC2)n1.Cl", "data value": 0}
{"compound": "COC(=O)c1cccc(NC(=O)NC2CCN(c3ccnc(Nc4cc(OC)c(OC)c(OC)c4)n3)C2)c1 (stereo not shown)", "data value": 4}

Kindly consider the entry below.
What reported %Inh corresponds to COC(=O)Nc1nc2cc(Oc3ccc(NC(=O)Nc4cc(C(F)(F)F)ccc4Cl)cc3)ccc2[nH]1.Cl on TIE2?
99.2

----------
Tested on: STK36
Conditions: concentration: 1 μM,replicates: in singlicate; n = 1
assay readout: %Inh (%)
Number only, in %; omit the unit.

A selection of reference data follows.
{"compound": "CN1CCN(CCCNc2nccc(-c3c(-c4ccc(F)cc4)nn4cc(C(N)=O)ccc34)n2)CC1", "data value": 98.9}
{"compound": "C[C@@H](Oc1cc(-n2cnc3ccc(-c4ccncc4)cc32)sc1C(N)=O)c1ccccc1Cl", "data value": 0}
{"compound": "C[C@@H]1CNc2c(sc3ccc4nc(-c5ccc(O)cc5)ccc4c23)C(=O)N1", "data value": 5}
{"compound": "O=C(Nc1cccc(C(F)(F)F)c1)c1cccc(Oc2ccc3nccn3n2)c1", "data value": 0}
{"compound": "COc1ccc(Nc2nccc(N3CCC(NC(=O)c4cccc(C#N)c4)C3)n2)cc1 (centres unmarked)", "data value": 0}
{"compound": "O=C(Nc1cccc(Oc2ccc3nccn3n2)c1)Nc1cccc(C(F)(F)F)c1", "data value": 0}

Returns the measured %Inh for the input compound. Input: O=C(Nc1ccccc1)c1cccc(Oc2ccc3nccn3n2)c1
5

Further, for CN(c1ccccc1CNc1nc(Nc2ccc3c(c2)CC(=O)N3)ncc1C(F)(F)F)S(C)(=O)=O ?
8

----------
Measured %Inh by item
System: WNK2
Conditions: concentration: 1 μM,replicates: in singlicate; n = 1
Provide only the numeric value, understood in %.

Examples with their reported %Inh follow.
{"molecule": "COc1cc2c(Nc3ccc(NC(=O)c4ccccc4)cc3)ncnc2cc1OCCCN1CCOCC1 [GSK301329]", "assay readout": "%Inh", "data value": 31}
{"molecule": "OCCn1cc(-c2cnc3nnn(Cc4ccc5ncccc5c4)c3n2)cn1", "assay readout": "%Inh", "data value": 0}

Next up:
// lookup %Inh for O=c1[nH]cc(-c2ccc(O)cc2)c2sc(-c3ccncc3)cc12 [GSK1033723]
26

----------
Test system: SRPK2
Settings: concentration: 1 μM,replicates: in singlicate; n = 1
The following compounds are shown together with reported %Inh values.
# value in %; strip the unit string

For SRPK2, provide %Inh of CNC(=O)c1ccccc1Nc1nc(Nc2cccc(CS(C)(=O)=O)c2)ncc1C.O=CO please.
24

----------
Form field: %Inh (one value per entry).
Test system: MEK2
Construct: gene MAP2K2
Conditions: concentration: 1 μM,replicates: in singlicate; n = 1
Please give a number only; it is taken to be in %.

Example molecules with recorded %Inh:
{"molecule": "CS(=O)c1ccc(-c2coc3ccc(-c4n[nH]c(=O)o4)cc23)cc1 (stereo not drawn)", "unit string": "%", "data value": 18}
{"molecule": "Cc1ccc(CC(=O)N2CCc3cc(-c4cn(C)c5ncnc(N)c45)ccc32)cc1", "unit string": "%", "data value": 0}
{"molecule": "Cl.c1ccc(Oc2ccc(Nc3ccnc4cc(-c5ccc(CN6CCNCC6)o5)ccc34)cc2)nc1", "unit string": "%", "data value": 90.9}

Requested read-out: %Inh. Entry: Cc1nnc(-c2ccc3occ(-c4ccc(S(C)=O)cc4)c3n2)o1 (stereo not drawn)
0

// query: CS(=O)(=O)c1cccc(CNc2nc(Nc3ccc4c(c3)[C@@H]3C[C@@H]4CNC3=O)ncc2C(F)(F)F)c1
80

Then COc1cccc(CNC(=O)NC2CCN(c3ccnc(Nc4cc(OC)c(OC)c(OC)c4)n3)C2)c1 (stereo not drawn) ?
5

Same lookup for O=C(Nc1ccccc1)c1cccc(Oc2ccc3nccn3n2)c1 , please.
6

Try this molecule next: COC(=O)Nc1nc2cc(Oc3ccc(NC(=O)Nc4cc(C(F)(F)F)ccc4Cl)cc3)ccc2[nH]1.Cl
0

----------
Test system: MARK3
Settings: concentration: 1 μM,replicates: in singlicate; n = 1
Threshold 8%: %Inh strictly smaller gives 1 (yes), otherwise 0 (no).

Recorded results for 2 compounds are shown here.
{"structure string": "CN1CCN(CCNc2nc3cc(Oc4ccc(NC(=O)Nc5cc(C(F)(F)F)ccc5F)cc4)ccc3[nH]2)CC1.Cl.Cl", "discrete label": "0 (no)"}
{"structure string": "Cc1ccc2c(-c3ccnc(Nc4ccc(C(F)(F)F)cc4)n3)cnn2n1", "discrete label": "1 (yes)"}

Read the next record carefully.
Field: below-cutoff. Rule: recorded %Inh strictly less than 8%. Subject: CN(c1ccc2c(c1)nc(NCc1ccc(F)cc1)n2C)c1ccnc(Nc2ccc(CS(C)(=O)=O)cc2)n1.Cl
1 (yes)

----------
System: DDR2
Details: concentration: 1 μM,replicates: in singlicate; n = 1
Overview of reported %Inh across a group of compounds:
All answers are understood in %, so give the number only.

{"compound": "Cc1n[nH]c2cc(Nc3ccnc(Nc4cccc(CN5CCOCC5)c4)n3)ccc12 [GW682569]", "%Inh [%]": 55}
{"compound": "Cl.Nc1n[nH]c2cc(-c3ccccn3)ccc12 [GSK2189892]", "%Inh [%]": 0}
{"compound": "O=C1NCCc2[nH]c(-c3ccncc3)cc21", "%Inh [%]": 0}
{"compound": "FC(F)(F)c1cc(Br)cc(Nc2nccc(-c3cnn4ncccc34)n2)c1 [GW810578]", "%Inh [%]": 16}

Query (compound): Cn1ccc2ncnc(Oc3ccc(NC(=O)Nc4cccc(C(F)(F)F)c4)c(Cl)c3)c21 ; field requested: %Inh
99.9

Query COc1cc2c(Nc3ccc(NC(=O)c4ccccc4)cc3)ncnc2cc1OCCCN1CCOCC1 [GSK301329] next
0

----------
Form field: %Inh (one value per entry).
System: CDK2
Conditions: concentration: 1 μM,replicates: in singlicate; n = 1
Report as a plain number; the unit % is understood.

Some molecules with recorded %Inh:
{"structure string": "CC(=O)c1c(-c2ccncc2)[nH]c(-c2ccncc2)c1C", "%Inh, %": 31}
{"structure string": "Cn1ccc2ncnc(Oc3ccc(NC(=O)Nc4cc(C(C)(C)C)on4)c(Cl)c3)c21", "%Inh, %": 12}
{"structure string": "COc1cc2c(Nc3ccc(NC(=O)c4ccccc4)cc3)ncnc2cc1OCCCN1CCOCC1", "%Inh, %": 0}
{"structure string": "C[C@@H]1CNc2c(sc3ccc4nc(-c5ccncc5)ccc4c23)C(=O)N1", "%Inh, %": 0}

Please give the measured %Inh for this molecule: Cn1ccc2ncnc(Oc3ccc(NC(=O)Nc4ccnc(C(F)(F)F)c4)c(Cl)c3)c21
0

----------
Parameter %Inh: see the listing below.
Tested on: DLK
Construct: gene MAP3K12
Settings: concentration: 1 μM,replicates: in singlicate; n = 1
Write the value in % as a bare number.

Consider the worked cases shown below.
{"compound": "CN(c1ccccc1CNc1nc(Nc2ccc3c(c2)CC(=O)N3)ncc1C(F)(F)F)S(C)(=O)=O", "unit string": "%", "data value": 19}
{"compound": "C[C@@H]1CNc2c(sc3ccc4nc(-c5ccncc5)ccc4c23)C(=O)N1", "unit string": "%", "data value": 0}
{"compound": "Cc1ccc(C(=O)Nc2ccc(Oc3ccc4nc(NC(=O)C5CC5)cn4c3)c(F)c2)c(=O)n1-c1ccccc1", "unit string": "%", "data value": 35}

Which %Inh value belongs to COc1ccc(Nc2nccc(N3CCC(NC(=O)c4cccc(C#N)c4)C3)n2)cc1 (stereo not drawn) ?
40

And the next one, Cc1ccc2c(-c3ccnc(Nc4ccc(C(F)(F)F)cc4)n3)cnn2n1 ?
0

Same for COc1cccc(OC)c1C(=O)Nc1cccc(-c2nn3ccccc3c2-c2ccnc(Nc3cccc(F)c3)n2)c1
0

Now consider Nc1nccc(-c2ccc3c(N)n[nH]c3c2)n1 and answer again.
1

Ok, now c1ccc(Oc2ccc(Nc3ccnc4ccc(-c5ccccn5)cc34)cc2)cc1
49

// query: O=C(Nc1cccc(Oc2ccc3nccn3n2)c1)Nc1cccc(C(F)(F)F)c1
3

Ok, now O=C(Nc1ccc(Oc2ccc3nc(NC(=O)C4CC4)cn3n2)c(F)c1)c1cccn(-c2ccccc2)c1=O
13

Next compound up: Cn1ccc2ncnc(Oc3ccc(NC(=O)Nc4cccc(C(F)(F)F)c4)c(F)c3)c21
0

# repeat for CCn1c(-c2nonc2N)nc2cncc(CNC3CCNCC3)c21.Cl
23

Moving on to O=C(NCC1CC1)c1ccc(-c2cc(C(=O)NC3CC3)ccc2F)cc1
12

Also need CN1CCN(CCNc2nc3cc(Oc4ccc(NC(=O)Nc5cc(C(F)(F)F)ccc5F)cc4)ccc3[nH]2)CC1.Cl.Cl , thanks.
0

Again, but for Cn1cc(-c2cccc3c(N)c(C(N)=O)nnc23)cn1
27

Continue with CS(=O)c1ccc(-c2coc3ccc(-c4n[nH]c(=O)o4)cc23)cc1 (stereo not drawn)
0

Cn1ccc2ncnc(Oc3ccc(NC(=O)Nc4cnn(C(C)(C)C)c4)c(Cl)c3)c21 , same question.
0

Check O=c1[nH]cc(-c2ccc(O)cc2)c2sc(-c3ccncc3)cc12 too.
12

Now give it for CCOC(=O)N1CCC(n2cnc(-c3ccc(F)cc3)c2-c2ccnc(N)n2)CC1 too.
0

Please answer likewise for CCn1c(-c2nonc2N)nc2cncc(Br)c21
43
